# Experiment: Protonation constants by potentiometric titration
# Type: physicochemical
# Condition parameters: 0.1 m tetramethylammonium chloride, 25°C; read-out: pK3
# Procedure: Potentiometric titrations were conducted at 25°C using a Corning Ion Analyzer (model 250) and a Metrohm Dorsimat automatic burette (Brinkman Instruments). […] The hydrogen ion activity coefficient and Kw were determined separately in these same salt solutions. Stability constants of Zn(NOTPME)^-, Mg(NOTPME)^-, and Ca(NOTPME)^- were determined by potentiometric titration of solutions containing 1:1 ratio of metal and ligand. […]
Endpoint label: pKa
Just the number.

Exam item: Using the record for CCOP(=O)(O)CN1CCN(CP(=O)(O)OCC)CCN(CP(=O)(O)OCC)CC1 [NOTPME] , report its pKa.
Marked response: 1.4

====

# Experiment: Protonation constants by potentiometric titration
# Format: physicochemical
# Condition parameters: 0.1 m tetramethylammonium chloride, protonations of the phosphonate ester oxygens
Endpoint label: pKa

Exam item: Recorded pKa for CCOP(=O)(O)CN1CCN(CP(=O)(O)OCC)CCN(CP(=O)(O)OCC)CC1 , please?
Marked response: < 1.4

====

# Experiment: KD of the DOTEP calcium complex by 31P NMR and pH potentiometry
# Type: binding
# Condition parameters: Ca(DOTEP); at pH 7.4
Endpoint label: Kd (µM)
Supply the numeric figure in µM, leaving out any unit text.

Exam item: Quick one: Kd for CCP(=O)(O)CN1CCN(CP(=O)(O)CC)CCN(CP(=O)(O)CC)CCN(CP(=O)(O)CC)CC1 ?
Marked response: 11

====

# Experiment: KD determination by 31P NMR (integration of free and metal bound resonances)
# Assay type: binding
# Condition parameters: Mg^2+ complex; 31P NMR; 115 mM KCl, 20 mM NaCl, 10 mM HEPES, pH 7.4; read-out: KD (at 25°X)
Endpoint label: Kd
Number first, unit second: that is the form wanted.

Exam item: For CCOP(=O)(O)CN1CCN(CP(=O)(O)OCC)CCN(CP(=O)(O)OCC)CC1 [NOTPME] , what is its reported Kd?
Marked response: 5.77 mM

====

# Experiment: KD determination by 31P NMR (integration of free and metal bound resonances)
# Type: binding
# Condition parameters: Ca^2+ complex, 115 mM KCl, 20 mM NaCl, 10 mM HEPES, pH 7.4, read-out: KD (at 25°X)
Endpoint label: pKd
A value of pKd is the negative decimal logarithm of a concentration given in moles per litre.

Exam item: Entry CCOP(=O)(O)CN1CCN(CP(=O)(O)OCC)CCN(CP(=O)(O)OCC)CC1 : reported pKd = ?
Marked response: 1.30

====

# Experiment: KD determination by 31P NMR (integration of free and metal bound resonances)
# Type: binding
# Condition parameters: Ca^2+ complex, pH 7.4, read-out: KD (at 37°C)
Endpoint label: pKd
// pKd: -log10(molar conc.)

Exam item: Could you tell me which pKd is on file for CCOP(=O)(O)CN1CCN(CP(=O)(O)OCC)CCN(CP(=O)(O)OCC)CC1 [NOTPME] ?
Marked response: 1.32

====

# Experiment: KD determination by 31P NMR (integration of free and metal bound resonances)
# Assay type: binding
# Condition parameters: Mg^2+ complex; 31P NMR; pH 7.4; read-out: KD (at 37°C)
Endpoint label: pKd
Please keep in mind that pKd is minus log10 of the molar concentration; only the number is needed.

Exam item: Endpoint output: pKd of CCOP(=O)(O)CN1CCN(CP(=O)(O)OCC)CCN(CP(=O)(O)OCC)CC1 [NOTPME] . Value?
Marked response: 2.33
